Reported Kd values, ATP-dependent translocase ABCB1 (Homo sapiens).
TEST READOUT: Kd (nM)

Solved cases (3 shown):
Enquiry: Consider the molecule O=c1c(O)c(-c2ccc(I)cc2)oc2cc(O)cc(O)c12 . State its measured Kd.
Return: 1100

Enquiry: Consider the molecule O=c1c(O)c(-c2ccc(O)cc2)oc2cc(O)cc(O)c12 . State its measured Kd.
Return: 6760

Enquiry: Consider the molecule C=CC(C)(C)c1c(OC)cc(O)c2c(=O)c(OC)c(-c3ccccc3)oc12 . State its measured Kd.
Return: 151

1. O=c1cc(-c2ccccc2)oc2ccccc12
2. O=c1c(O)c(C(c2ccccc2)c2ccccc2)oc2cc(O)cc(O)c12
3. CC(C)c1c(O)cc2oc(-c3ccccc3)cc(=O)c2c1O
Enquiry: Hey, quick one: sort these by Kd, largest value first please. Please list the labels according to the requested order.
Return: 1, 2, 3
